Target: T1, human CD19 on CHO cells (human, UniProt P15391 20-556)
T1 construct: whole, on cells; also called Cells Expressing Human CD19; CHO cells overexpressing the antigen
T1 sequence (looked up): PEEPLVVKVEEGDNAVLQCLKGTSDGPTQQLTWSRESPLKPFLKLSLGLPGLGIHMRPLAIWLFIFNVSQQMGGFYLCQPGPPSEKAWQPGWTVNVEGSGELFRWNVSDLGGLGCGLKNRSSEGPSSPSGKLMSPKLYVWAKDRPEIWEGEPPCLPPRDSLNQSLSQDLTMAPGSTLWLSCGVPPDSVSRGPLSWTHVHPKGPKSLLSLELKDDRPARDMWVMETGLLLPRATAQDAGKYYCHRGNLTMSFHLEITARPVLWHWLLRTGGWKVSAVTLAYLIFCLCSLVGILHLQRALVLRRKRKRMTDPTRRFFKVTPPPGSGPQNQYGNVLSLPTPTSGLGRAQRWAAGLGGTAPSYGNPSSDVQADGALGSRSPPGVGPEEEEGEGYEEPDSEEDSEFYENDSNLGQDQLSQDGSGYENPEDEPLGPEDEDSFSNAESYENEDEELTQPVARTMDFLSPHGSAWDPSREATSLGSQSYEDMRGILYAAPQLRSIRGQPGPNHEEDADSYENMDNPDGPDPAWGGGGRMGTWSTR
Assay: flow cytometry, CHO cells, 100 nM IgG
Consider the cut-off 200 FOB. If the recorded Binding to Cells Expressing Human CD19 (FOB) is strictly smaller, the label is Satisfied; if not, the label is Not satisfied.

The examples below pair each entry with its known result.
[
  {
    "binder": "CNG-CD19-702 (antibody, V domains shown, tested as IgG produced in yeast) VH: QVQLQESGPGLVKPSQTLSLTCTVSGGSTSTSGMGVSWIRQHPGKGLEWIGHIWWDDDKRYNPVLKSRVTISVDTSKNQFSLKLSSVTAADTAVYYCARMELWSYYFDPWGQGTLVTVSS VL: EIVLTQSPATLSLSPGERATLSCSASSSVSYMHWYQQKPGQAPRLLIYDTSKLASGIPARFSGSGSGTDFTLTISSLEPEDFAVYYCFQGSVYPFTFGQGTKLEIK",
    "answer_label": "Satisfied"
  },
  {
    "binder": "CNG-CD19-710 (antibody, V domains shown, tested as IgG produced in yeast) VH: QVQLQESGPGLVKPSQTLSLTCTVSGVSISTSSMGVGWIRQHPGKGLEWIGHAWWDDDKRYNPALKSRVTISVDTSKNQFSLKLSSVTAADTAVYYCARMELWSYYFDPWGQGTLVTVSS VL: EIVLTQSPATLSLSPGERATLSCSASSSFSYMHWYQQKPGQAPRLLIYDTSKLASGIPARFSGSGSGTDFTLTISSLEPEDFAVYYCFQGSVYPFTFGQGTKLEIK",
    "answer_label": "Satisfied"
  },
  {
    "binder": "CNG-CD19-708 (antibody, V domains shown, tested as IgG produced in yeast) VH: QVQLQESGPGLVKPSQTLSLTCTVSGGSISTSTMGVGWIRQHPGKGLEWIGFIWWDDDKRYNPNLKSRVTMSVDTSKNQFSLKLSSVTAADTAVYYCARMELWSYYFDPWGQGTLVTVSS VL: EIVLTQSPATLSLSPGERATLSCSASSSVGYMHWYQQKPGQAPRLLIYDTSKLSSGIPARFSGSGSGTDFTLTISSLEPEDFAVYYCFQGSVYPFTFGQGTKLEIK",
    "answer_label": "Not satisfied"
  }
]

Request: Please indicate whether the reported Binding to Cells Expressing Human CD19 (FOB) of CNG-CD19-707 (antibody, V domains shown, tested as IgG produced in yeast) VH: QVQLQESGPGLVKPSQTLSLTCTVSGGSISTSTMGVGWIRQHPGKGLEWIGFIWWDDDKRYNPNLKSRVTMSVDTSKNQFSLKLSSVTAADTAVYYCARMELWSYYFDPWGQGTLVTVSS VL: EIVLTQSPATLSLSPGERATLSCSASSSVGYMHWYQQKPGQAPRLLIYDTSKLASGIPARFSGSGSGTDFTLTISSLEPEDFAVYYCFQGSVYPFTFGQGTKLEIK is strictly below 200 FOB.
Result: Not satisfied

Request: # TODO verify Binding to Cells Expressing Human CD19 (FOB) < 200 FOB strictly for this binder: CNG-CD19-101 (antibody, V domains shown, tested as IgG produced in yeast) VH: QVQLVQSGAEVKKPGASVKVSCKASGYDFTDYIMHWVRQAPGQGLEWMGYINPYNDGSKYTDKFQERVTMTSDTSISTAYMELSRLRSDDTAVYYCARGTYYYGPELFDYWGQGTTVTVSS VL: DIVMTQTPLSLSVTPGQPASISCKSSQSLETTTGTTYLNWYLQKPGQSPQLLIYRASKRFSGVPDRFSGSGSGTDFTLKISRVEAEDVGVYYCLQLLEDPYTFGQGTKLEIK
Result: Not satisfied

Every entry's value here was drawn from patent US20230037815A1.
